Origin of values: patent US12427163B2

Target: T1, human VTCN1 protein (Homo sapiens, UniProt Q7Z7D3)
T1 construct: His
T1 sequence (Q7Z7D3 25-282): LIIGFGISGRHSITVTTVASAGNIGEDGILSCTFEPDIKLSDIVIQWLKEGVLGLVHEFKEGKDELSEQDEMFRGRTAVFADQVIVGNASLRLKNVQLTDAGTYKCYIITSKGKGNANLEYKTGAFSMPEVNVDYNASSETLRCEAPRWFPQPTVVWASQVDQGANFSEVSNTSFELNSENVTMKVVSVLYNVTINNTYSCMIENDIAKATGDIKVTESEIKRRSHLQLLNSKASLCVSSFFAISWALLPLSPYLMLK
Assay: Affinity to recombinant VTCN1-his by OCTET Red (Protein A biosensors)
Format: binding
Settings: Table 12
Label Yes for high-side Human K(off) (at or above 0.006) and No for low-side Human K(off) (below it).

# example entries with known answers
[[record]]
molecule = "7G7_44C6: fully human VTCN1 antibody; VH SEQ ID NO: 256, VL SEQ ID NO: 260 (antibody, V domains shown) VH: QVQLQESGPGLVKPSETLSLTCTVSGGSISHYYWSWIRQPPGKGLEWIGYIYYSGPTNYNPSLKSRVTISVDTSKNQFSLKLSSVTAADTAVYYCARTYYYGSGSFPDAFDIWGQGTMVTVSS VL: KIVLTQSPATLSLSPGERATLSCRASQSVSSYLAWYQQTPGQAPRLLIYDASNRATGIPARFSVSGSGTDFTLTISSLEPEDFAVYYCQQRSSWPLTFGGGTKLEIK"
assigned_category = "Yes"

[[record]]
molecule = "14D6_60B5: fully human VTCN1 antibody; VH SEQ ID NO: 278, VL SEQ ID NO: 281 (antibody, V domains shown) VH: QVQLVHSGAEVKRPGSSVKVSCKASGGTFSSYAISWVRQAPGQGLEWMGGIIPIFGIANYAQKFQGRVTIIADKSTRTAYMELSSLRSEDTAVYYCARGGPYFDYWGQGILVTVSS VL: EIVMTQSPATLSVSPGERATLSCRASQSVSSNLAWYQQKPGQAPRLLIYGASTRATGIPARFSGSGSGTEFTLTISSLQSEDFAVYYCQQYNKWPFTFGPGTKVDIK"
assigned_category = "No"

[[record]]
molecule = "16H12_60B4: fully human VTCN1 antibody; VH SEQ ID NO: 283, VL SEQ ID NO: 286 (antibody, V domains shown) VH: QVQVVQSGAEVKKPGSSVKVSCKASGDTFSNYAISWVRQAPGQGLEWMGGIIPIFGITNYAQKFQGRVTIIADKSTRTAYMELSSLRSEDTAVYYCSRGGPYFDYWGQGILVTVSS VL: EIVMTQSPATLSVSPGERATLSCRASQSVSSNLAWYQQKPGQAPRLLIYGASTRATGIPARFSGSGSGTEFTLTISSLQSEDFAVYYCQQYKKWPFTFGPGTKVDIK"
assigned_category = "No"

[[record]]
molecule = "13H9_44D2: fully human VTCN1 antibody; VH SEQ ID NO: 272, VL SEQ ID NO: 276 (antibody, V domains shown) VH: QVQLQESGPGLVKPSETLSLTCTVSGGSISSYYWSWIRQPPGKGLEWIGYIYYSGSTNNNPSLKSRVTISVDTSKNQFSLKLISVTAADTAVYYCARVYNNYDWGFDYWGQGTLVTVSS VL: EIVMTQSPATLSVSPGERATLSCRASQSVSSNLAWYQQKPGQAPRLLIYGASTRATGIPARFSGSGSGTEFTLTIRSLQSEDFAVYYCQQYHNWPLTFGGGTKLEIK"
assigned_category = "Yes"


Turning now to a further molecule:
Query block: Check this molecule for Human K(off) at or above 0.006: 4C7_63A1: fully human VTCN1 antibody; VH SEQ ID NO: 248, VL SEQ ID NO: 252 (antibody, V domains shown) VH: QVQLQESGPGLVKPSGTLSLTCAVSGGSISSSNWWSWVRQPPGKGLEAIGEIYHSGNTNYNPSLKSRVTISVDKSKNQFSLKLSSVTAADTAIYYCARDGYSSGWYWGYFDYWGQGTLVTVSS VL: EIVMTQSPATLSVSPGERATLSCRASQSVNSNLAWYQQKPGQAPWLLIYGASTRATGIPARFSGSGSGTEFTLTISSLQSEDFAVYYCQQYNHWPYTFGQGTKLEIK
Result block: No
